Recorded values, source patent US20250002574A1.

Molecular target: T1, IL-11 (UniProt P20809 22-199, limits assumed)
T1 construct: also called IL-11 protein; IL-11 antigen
T1 sequence (looked up): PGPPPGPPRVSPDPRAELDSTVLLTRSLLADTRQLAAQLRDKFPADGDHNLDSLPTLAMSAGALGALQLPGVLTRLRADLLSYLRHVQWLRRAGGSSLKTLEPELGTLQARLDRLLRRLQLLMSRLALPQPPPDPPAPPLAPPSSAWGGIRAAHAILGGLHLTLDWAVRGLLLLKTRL
Assay: flow cytometry of phage clone; cells not given
Property name: Flow (Mean) (mean fluorescence)

Binder	Property name	Units symbol	Reported value
1B1 (scFv, As m119: scFv on phage) scFv: QVQLVQSGAVVKKPGASVKVSCKASDYTFTNYWLGWVRQAPGQGLEWMGHIYPGGGYTNYNEKFKGRVTMTSDTSTSTVYMELSSLSSEDTAVYYCARVRSGNDALDFWGQGTLVTVSSGGGGSGGGGSGGGGSEIVLTQSPATLSLSPGERATLSCHASESVDEYGISFMNWFQQKPGQAPRLLIYSASNQGSGIPARFSGSGSGTDFTLTISSLEPEDFAVYFCQQSKEVPWTFGGGTKLEIK	Flow (Mean)	mean fluorescence	3500
1F7 (scFv, As m119: scFv on phage) scFv: QVQLVQSGAEVKKPGASVKVSCKASDYTFTNYWLAWVRQAPGQGLEWMGHIYPGGGYTNYNEKFKGRVTMTRDTSTSTVYMELSSLRSEDTAVYYCARVRSGNDALDFWGQGTLVTVSSGGGGSGGGGSGGGGSEIVLTQSPATLSLSPGERATVSCRASESVDEYGISFMNWFQQKPGQAPTLLIYSASNLGSGIPARFSGSGSGTDFTLTISSLEPEDFAVYFCQQSKEVPWTFGGGTKLEIK	Flow (Mean)	mean fluorescence	1860
Original sequence (1H9) (scFv, Template scFv of the phage library, on phage; also called ScFv VH-Linker-VL of VH1+VL3) scFv: QVQLVQSGAEVKKPGASVKVSCKASDYTFTNYWLGWVRQAPGQGLEWMGHIYPGGGYTNYNEKFKGRVTMTRDTSTSTVYMELSSLRSEDTAVYYCARVRSGNDALDFWGQGTLVTVSSGGGGSGGGGSGGGGSEIVLTQSPATLSLSPGERATLSCRASESVDEYGISFMNWFQQKPGQAPRLLIYSASNQGSGIPARFSGSGSGTDFTLTISSLEPEDFAVYFCQQSKEVPWTFGGGTKLEIK	Flow (Mean)	mean fluorescence	450
2E7 (scFv, As m119: scFv on phage) scFv: QVQLVQSGAEVKKPGASVKVSCKASDYTFTNYWLGWVRQAPGQGLEWMGHIYPSGGYTNYNEKFKGRVTMTRDTSTSTVYMELSSLRSEDTAVYYCARVSSGNDALDFWGQGTLVTVSSGGGGSGGGGSGGGGSEIVLTQSPATLSLSPGERATLSCRASESVDEYGISFMNWFQQKPGQAPRLLIYSASNQGSGIPARFSGSGSGTDFTLTISSLEPEDFAVYFCQQSKELPWTFGGGTKLEIK	Flow (Mean)	mean fluorescence	1990
1E12 (scFv, As m119: scFv on phage) scFv: QVQLVQSGAEVKKPGASVKVSCKASDYTFTNYWLGWVRQAPGQGLEWMGHIYPGGGYTNYNEKFKGRVTMTRDTSTSTVYMELSSLRSEDTAVYYCARVSSGNDALDLWGQGTLVTVSSGGGGSGGGGSGGGGSEIVLTQSPATLSLSPGERATLSCRASESVDEYGISFMNWFQQKPGQAPRLLIYSGSNEGSGIPARFSGSGSGTDFTLTISSLEPEDFAVYFCNQSKEVPWTFGGGTKLEIK	Flow (Mean)	mean fluorescence	6320
